System: M14 melanoma
procedureSummary: NCI-60 one-dose screen, 48 h (100 = growth as untreated, 0 = no growth, -100 = all killed)
conditionInfo: 10 µM unless noted
Compounds without any hit were thinned out: in the full panel of roughly 83,000, 20% have a hit.
What growth was measured for each of the following?
Numbers only, in %.

Some entries whose results are on file:
// growth lookup, compound = `CS(=O)(=O)Nc1cc(-c2ccc3ncnc(Nc4ccc5c(cnn5Cc5cccnc5)c4)c3c2)cnc1Cl` , result: 41

// growth lookup, compound = `CCCCc1oc2ccccc2c1C(=O)c1ccc(O)cc1` , result: 92.2

// growth lookup, compound = `CCCCC(=O)Nc1ncc(Cc2ccccc2Cl)s1` , result: 21.8

Consider the record given below.
// growth lookup, compound = `CC(C)(CO)N(CCO)CCO` , result: 108

---

What growth was measured for each of the following?
Tested on: TK-10 renal
procedureSummary: NCI-60 one-dose screen, 48 h (100 = growth as untreated, 0 = no growth, -100 = all killed)
conditionInfo: 10 µM unless noted
Compounds without any hit were thinned out: in the full panel of roughly 83,000, 20% have a hit.
One number for each entry, in %.

// growth lookup, molecule = `NC(=O)OCCn1cc(-c2nc(-c3c[nH]c4ncccc34)cs2)c2ccccc21` , result: 62.3

I would be grateful if you could provide growth for each of the following entries.
1. COc1ccc(NC(=O)c2ccc(C(=O)Nc3ccc(OC)cc3OC)cc2)c(OC)c1
2. CC12CCC(/C(=C/NNc3ccc([N+](=O)[O-])cc3[N+](=O)[O-])C1=O)C2(C)C (stereo not given)
3. COc1ccc2nc3cc(Cl)ccc3c(NCCN)c2c1
4. O=C(CCC(=O)c1nc2ncccc2[nH]1)NN1C(=O)CSC1c1ccc(Cl)cc1 (stereo not given)

69.7
96.8
-76.2
126

---

System: MDA-MB-231 breast
procedureSummary: NCI-60 one-dose screen, 48 h (100 = growth as untreated, 0 = no growth, -100 = all killed)
conditionInfo: 10 µM unless noted
About 83,000 compounds went through this panel and 20% of them were active in at least one assay; those are over-represented in the sample as a whole. The source made the active and inactive calls. The calls were made as follows: active = growth percent below 10; inactive = the rest.
propertyLabel: growth

// growth lookup, molecule = `CS(=O)(=O)Nc1cc(-c2ccc3ncnc(Nc4ccc5c(cnn5Cc5cccnc5)c4)c3c2)cnc1Cl` , result: 47.6% (inactive)

// growth lookup, molecule = CCN1C(=S)N(CC)C2C1NC(=S)N2/N=C/C=C/c1ccccc1OC (centres undefined) , result: 11.5% (inactive)

// growth lookup, molecule = `CCOC(=O)c1ccc2c(c1)c1c(C)c3ccncc3c(C)c1n2C` , result: 2.92% (active)

I would be grateful if you could provide growth for each of the following entries.
1. C=C1C(=O)O[C@H]2[C@H]1CC/C(COC(=O)c1cc3cc(F)ccc3[nH]1)=C\CC[C@@]1(C)O[C@@H]21
2. C=NNc1ccccc1
3. N#C/C(=C\c1ccc(Cl)cc1Cl)C(=O)Nc1ncc(Cc2ccc(Cl)c(Cl)c2)s1

["-70.1% (active)", "66.8% (inactive)", "97.1% (inactive)"]

---

Test system: NCI-H460 lung
procedureSummary: NCI-60 one-dose screen, 48 h (100 = growth as untreated, 0 = no growth, -100 = all killed)
conditionInfo: 10 µM unless noted
Compounds without any hit were thinned out: in the full panel of roughly 83,000, 20% have a hit.
What growth was measured for each of the following?
Numbers only, in %.

// growth lookup, molecule = `CS(=O)(=O)Nc1cc(-c2ccc3ncnc(Nc4ccc5c(cnn5Cc5cccnc5)c4)c3c2)cnc1Cl` , result: 79.8

// growth lookup, molecule = COC(=O)C1=C(C(=O)Nc2cccnc2)C2OC1(C(Cc1ccccc1)Oc1ccccc1)C1OC21 (stereo not given) , result: 103

// growth lookup, molecule = COc1ccc(NC(=O)c2sc3nc(C)c(C(O)c4ccccc4)cc3c2N)cc1 (stereo not given) , result: 10.1

// growth lookup, molecule = `CCCCn1sc(=O)n(Cc2ccc(CNC(=O)OCc3ccc4c(Br)cc(Br)c(O)c4n3)cc2)c1=O` , result: 4.44

// growth lookup, molecule = CCOC(=O)C1=C(c2ccccc2)N=c2s/c(=C/c3ccc(Br)cc3)c(=O)n2C1c1ccc(O)cc1 (stereo not given) , result: 94.1

// growth lookup, molecule = `O=C(CSc1nc2ccc([N+](=O)[O-])cc2[nH]1)Nc1ccc(Br)cc1` , result: 47.7

// growth lookup, molecule = `NNC(=S)N/N=C/c1ccccn1` , result: 9.74

// growth lookup, molecule = `CCCCCCCCCCCCCCCCCCOc1ccccc1CC(=O)OCC[N+]1(C)CCOCC1` , result: 69.2

I would be grateful if you could provide growth for each of the following entries.
1. COc1ccc(C2=Nc3c/c(=C\c4c(O)[nH]c5cc(Cl)ccc45)ccc3=N2)cc1
2. O=C(/C=C/C12c3ccccc3C(c3ccccc31)C1C(=O)NC(=O)C12)c1ccccn1 (stereo not given)
3. CN(C)c1ccc(/C=C/C(=O)c2ccc(Nc3nc(Nc4ccc(F)cc4)nc(Nc4ccc(Cl)cc4)n3)cc2)cc1
4. OC(c1ccccc1)(c1ccccc1)c1ccccc1-c1ccccc1
5. Cc1ccc(N=Nc2c(N)nn(-c3ccccc3)c2N)cc1
6. Cn1ncc2ccc(-c3nc(-c4ccccc4)[nH]c3-c3n[nH]c(=O)n3C3CC3)cc21
7. COc1ccc(Nc2ncc(C(N)=O)c(NCCCNC(=O)C3CCC3)n2)cc1
8. FC(F)(F)c1[nH]ncc1-c1nc2c(N3CCCCC3)cc3[nH]ncc3c2c2c1CCCC2

93.6
-18.5
62.7
93.1
9.76
99.4
68.6
3.42

I would be grateful if you could provide growth for each of the following entries.
1. CCNCc1ccc(O)c2ncccc12
2. C=C1C(=O)O[C@H]2[C@H]1CC/C(COC(=O)NCc1ccc(Cn3c(=O)sn(-c4ccc(OC)cc4)c3=O)cc1)=C\CC[C@@]1(C)O[C@@H]21

20
95.2

I would be grateful if you could provide growth for each of the following entries.
1. O=C(/C=C/c1ccccc1)Nc1ncc(Cc2ccccc2)s1
2. Cn1c(/C=C/[N+](=O)[O-])cc2ccccc21

1: 2.22; 2: 62.7

src = PubChem BioAssay (NCI)
